The measurements presented in this section are drawn from patent US5696117A.

TESTED SYSTEM: Kinase A and SpoOF (Bacillus subtilis)
Construct: made in house; host or cells: recombinant E. coli (overexpression)
Sequence (P16497 1-606): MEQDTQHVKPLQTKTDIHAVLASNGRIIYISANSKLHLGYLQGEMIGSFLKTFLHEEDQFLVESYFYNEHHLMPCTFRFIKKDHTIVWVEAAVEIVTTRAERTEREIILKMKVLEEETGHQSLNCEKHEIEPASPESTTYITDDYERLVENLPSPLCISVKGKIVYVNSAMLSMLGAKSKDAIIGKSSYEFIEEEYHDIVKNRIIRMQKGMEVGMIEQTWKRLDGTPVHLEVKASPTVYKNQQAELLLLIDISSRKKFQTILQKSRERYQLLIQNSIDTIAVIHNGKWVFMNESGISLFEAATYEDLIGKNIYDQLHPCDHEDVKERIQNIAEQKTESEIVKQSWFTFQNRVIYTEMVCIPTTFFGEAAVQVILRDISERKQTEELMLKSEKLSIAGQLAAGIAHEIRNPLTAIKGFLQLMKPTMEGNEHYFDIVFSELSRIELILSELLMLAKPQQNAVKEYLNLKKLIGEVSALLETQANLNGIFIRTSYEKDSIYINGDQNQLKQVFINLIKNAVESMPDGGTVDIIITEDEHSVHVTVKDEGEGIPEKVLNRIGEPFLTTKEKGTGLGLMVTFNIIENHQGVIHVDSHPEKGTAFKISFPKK
EXPERIMENT NOTES: Autophosphorylation of Kinase A and Transphosphorylation of SpoOF Assay (HPK in vitro assay)
Type: biochemical
RUN CONDITIONS: inhibition of KinA autophosphorylation / SpoOF transphosphorylation, inhibitor concentrations from 1 to 500 μM
READOUT KIND: IC50 (µM)
Numbers only, in µM.

Example entries begin here.
[[record]]
compound = "COc1ccc(CN2C(=O)C(CCOc3ccc(CCNC(=N)N)cc3)Oc3ccccc32)cc1 (stereo not shown)"
tested_system = "Kinase A and SpoOF (Bacillus subtilis)"
readout_kind = "IC50"
observed = 51

[[record]]
compound = "N=C(N)NCCc1ccc(OCCC2Oc3ccc([N+](=O)[O-])cc3N(Cc3ccccc3Cl)C2=O)cc1 (stereo not shown)"
tested_system = "Kinase A and SpoOF (Bacillus subtilis)"
readout_kind = "IC50"
observed = 17

[[record]]
compound = "N=C(N)NCCc1ccc(OCCC2Oc3ccc(C(F)(F)F)cc3N(Cc3cccc(Cl)c3)C2=O)cc1 (stereo not shown)"
tested_system = "Kinase A and SpoOF (Bacillus subtilis)"
readout_kind = "IC50"
observed = 14

[[record]]
compound = "Cl.N=C(N)NCCc1ccc(OCCC2Oc3cc([N+](=O)[O-])ccc3N(Cc3cccc(Cl)c3)C2=O)cc1 (stereo not shown)"
tested_system = "Kinase A and SpoOF (Bacillus subtilis)"
readout_kind = "IC50"
observed = 30

[[record]]
compound = "NCc1cccc(OCCC2Oc3ccccc3N(Cc3ccccc3Cl)C2=O)c1 (stereo not shown)"
tested_system = "Kinase A and SpoOF (Bacillus subtilis)"
readout_kind = "IC50"
observed = 140

[[record]]
compound = "CC(C)(C)OC(=O)NCCc1ccc(OCCC2Oc3ccccc3N(Cc3cccc(C(=O)O)c3)C2=O)cc1 (stereo not shown)"
tested_system = "Kinase A and SpoOF (Bacillus subtilis)"
readout_kind = "IC50"
observed = 113

[[record]]
compound = "COC(=O)c1ccc(CN2C(=O)C(CCOc3ccc(CCN)cc3)Oc3ccccc32)cc1 (stereo not shown)"
tested_system = "Kinase A and SpoOF (Bacillus subtilis)"
readout_kind = "IC50"
observed = 24

[[record]]
compound = "COc1ccc2c(c1)OC(CCOc1ccc(CCNC(=NC(=O)OC(C)(C)C)NC(=O)OC(C)(C)C)cc1)C(=O)N2Cc1cccc([N+](=O)[O-])c1 (stereo not shown)"
tested_system = "Kinase A and SpoOF (Bacillus subtilis)"
readout_kind = "IC50"
observed = 343


I would be grateful if you could provide IC50 for each of the following entries.
1. CC(C)(C)OC(=O)N=C(NCCc1ccc(OCCC2Oc3ccc(C(F)(F)F)cc3N(Cc3cccc(Cl)c3)C2=O)cc1)NC(=O)OC(C)(C)C (stereo not shown)
2. NCc1ccc(OCCC2Oc3ccccc3N(Cc3cc(Cl)cc(Cl)c3)C2=O)cc1 (stereo not shown)
3. N=C(N)NCCc1ccc(OCCC2Oc3ccccc3N(Cc3ccncc3)C2=O)cc1 (stereo not shown)
4. NCc1ccc(OCCC2Oc3ccccc3N(Cc3ccccc3Cl)C2=O)cc1 (stereo not shown)

[84, 46, 444, 172]

Dear reader, for each entry below, please note its IC50.
1. NCc1cccc(OCCC2Oc3ccccc3N(Cc3cccc(Cl)c3)C2=O)c1 (stereo not shown)
2. NCCc1ccc(OCCC2Oc3ccccc3N(Cc3ccccc3Cl)C2=O)cc1 (stereo not shown)
3. Cl.NCCc1ccc(OCCC2Oc3cc([N+](=O)[O-])ccc3N(Cc3cccc(Cl)c3)C2=O)cc1 (stereo not shown)
4. CC(C)(C)OC(=O)N=C(NCCc1ccc(OCCC2Oc3ccccc3N(Cc3csc(Cl)c3)C2=O)cc1)NC(=O)OC(C)(C)C (stereo not shown)

81
264
27
398
